System: HCV 1a replicon
Assay procedure: HCV GT1a replicon assay in Huh-7 cells
Type: cell-based, Hepatitis C virus
Conditions used: Hepatitis C virus; Huh-7 cells transfected with HCV replicon, 72 hours incubation; read-out: EC50 against HCV 1a genotype
Measured attribute: pEC50
Answers are plain numbers, as −log10 of the molar value.

The following compounds have reported results that may help.
Compound	pEC50
COC(=O)N[C@H](C(=O)N1C2CC2C[C@H]1c1ncc(-c2ccc(-c3ccc(-c4ccc5nc([C@@H]6CC7CC7N6C(=O)[C@@H](NC(=O)OC)C(C)C)[nH]c(=O)c5c4)c4c3CC3(CCCC3)C4)cc2)[nH]1)C(C)C (stereo partly drawn)	9.25
COC(=O)N[C@H](C(=O)N1CCC[C@H]1c1cc(=O)c2cc(-c3ccc(-c4ccc(-c5cnc([C@@H]6CCCN6C(=O)[C@@H](NC(=O)OC)C(C)C)[nH]5)cc4)c4c3CC3(CCCC3)C4)ccc2[nH]1)C(C)C	8.89

Continue with the next compound.
Name the reported pEC50 value associated with the compound CCC(C)[C@H](NC(=O)OC)C(=O)N1CCC[C@H]1c1nc(=O)c2cc(-c3ccc(-c4ccc(-c5cnc([C@@H]6CCCN6C(=O)[C@@H](NC(=O)OC)C(C)C)[nH]5)cc4)c4c3CC3(CCCCC3)C4)ccc2[nH]1 (stereo partly drawn)
9.01
